target: HLA-DQ2 (Homo sapiens, UniProt P01909+P01920); test: Inhibition of IL-2 secretion by TCR transductants stimulated by α-gliadin peptides presented by HLA-DQ2 expressing K562 cells (ELISA); format: cell-based; details: inhibition of IL-2 secretion at 200 uM; tested as trans racemate unless otherwise noted; lines naming several Examples = stereoisomer mixture of those Examples
Sequence (P01920 33-261 limits assumed, other chains not shown): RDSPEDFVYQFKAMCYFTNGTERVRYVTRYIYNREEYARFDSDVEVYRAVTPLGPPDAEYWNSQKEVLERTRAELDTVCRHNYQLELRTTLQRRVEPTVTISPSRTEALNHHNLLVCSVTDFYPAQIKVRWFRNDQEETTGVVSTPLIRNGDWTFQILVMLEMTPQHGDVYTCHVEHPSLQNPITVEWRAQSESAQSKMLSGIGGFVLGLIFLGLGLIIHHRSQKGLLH
readout-kind: % Inh at 200 uM

O=C(COc1ccc(F)cc1)N1CCN(C(=O)C2CC2c2ccc3c(c2)OCO3)CC1 (stereo not shown) [Example 6]    A (A=≥75%)
O=C(CSC1CCCC1)N1CCN(C(=O)[C@H]2C[C@@H]2c2ccccc2Cl)CC1 [Example 36]    A (A=≥75%)
